Study system: CXCR3 (Homo sapiens)
Sequence (P49682 1-368): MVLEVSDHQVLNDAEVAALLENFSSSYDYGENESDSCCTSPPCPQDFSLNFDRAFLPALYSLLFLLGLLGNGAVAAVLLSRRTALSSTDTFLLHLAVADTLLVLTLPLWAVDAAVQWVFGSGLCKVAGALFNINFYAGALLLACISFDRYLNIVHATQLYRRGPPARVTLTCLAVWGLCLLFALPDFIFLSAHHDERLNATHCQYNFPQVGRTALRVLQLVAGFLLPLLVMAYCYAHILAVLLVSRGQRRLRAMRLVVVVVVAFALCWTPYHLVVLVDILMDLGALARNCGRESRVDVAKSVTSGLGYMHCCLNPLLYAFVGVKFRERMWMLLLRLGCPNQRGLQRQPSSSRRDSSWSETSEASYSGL
Assay info: Chemotaxis assay ITAC (CXCL11), L1.2-CXCR3 cells
Format: cell-based
Set-up: expressed in transfected cells
Experimental setup: 1 nM CXCL11 (I-TAC), 4 hours
Property: IC50 (nM)

Example molecules with recorded IC50:
>  <Smiles record>
CC(C)(C)OC(=O)N1C[C@@H]2[C@H](C1)[C@H]2NC(=O)c1ccc(CN(Cc2ccccc2)S(=O)(=O)c2ccc(Cl)cc2)cc1

>  <Study system>
CXCR3 (Homo sapiens)

>  <IC50 (nM)>
510

$$$$
>  <Smiles record>
N#Cc1ccc(S(=O)(=O)N(Cc2ccc(C(=O)NCc3ccccn3)cc2)Cc2ccccn2)cc1

>  <Study system>
CXCR3 (Homo sapiens)

>  <IC50 (nM)>
750

$$$$
>  <Smiles record>
Cc1nc(CN(Cc2ccc(-c3nnn[nH]3)cc2)S(=O)(=O)c2ccc(Cl)cc2)no1

>  <Study system>
CXCR3 (Homo sapiens)

>  <IC50 (nM)>
3240

$$$$

P = N#Cc1ccc(S(=O)(=O)N(Cc2ccc(C(=O)NC3(c4cccc(Cl)c4)CC3)cc2)Cc2ccccn2)cc1
Q = N#Cc1ccc(S(=O)(=O)N(Cc2ccc(C(=O)NCc3ccncc3)cc2)Cc2ccccn2)cc1
Which one would you say has the larger IC50 value: P , or Q ? API: response body contains the label of the selected item.
Q

P = O=C(NC1(c2ccc(Cl)cc2)CC1)c1ccc(CN(Cc2ccccn2)S(=O)(=O)c2ccc(Cl)cc2)cc1
Q = N#Cc1ccc(S(=O)(=O)N(Cc2ccc(C(=O)NC3(c4ccccc4)CC3)cc2)Cc2cccnc2)cc1
R = O=S(=O)(c1ccc(Cl)cc1)N(Cc1ccc(-c2nnn[nH]2)cc1)Cc1ccc2ccccc2n1
S = N#Cc1cccc(CN(Cc2ccccn2)S(=O)(=O)c2ccc(Cl)cc2)c1
Reorder: IC50, max to min. Returns: the labels listed in the requested order.
S, R, Q, P

a = O=C(O)c1ccc(CN(Cc2ccccc2F)S(=O)(=O)c2ccc(Cl)cc2)cc1F
b = O=S(=O)(c1ccc(Cl)cc1F)N(Cc1ccc(-c2nnn[nH]2)cc1)Cc1ccccn1
Which one would you say has the larger IC50 value: a , or b ? API: response body contains the label of the selected item.
a

---

Study system: CXCR3 (Homo sapiens)
Sequence (P49682 1-368): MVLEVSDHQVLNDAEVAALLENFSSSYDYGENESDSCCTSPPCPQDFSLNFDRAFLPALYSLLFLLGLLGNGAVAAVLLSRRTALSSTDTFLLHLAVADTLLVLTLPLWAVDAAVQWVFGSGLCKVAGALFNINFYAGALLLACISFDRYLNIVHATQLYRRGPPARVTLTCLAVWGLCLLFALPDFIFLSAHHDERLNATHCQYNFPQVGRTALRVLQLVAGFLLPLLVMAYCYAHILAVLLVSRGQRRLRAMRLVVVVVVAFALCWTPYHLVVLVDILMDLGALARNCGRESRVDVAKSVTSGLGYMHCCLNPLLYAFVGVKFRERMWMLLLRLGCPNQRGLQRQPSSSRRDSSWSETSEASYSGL
Assay info: Chemotaxis assay IP10, L1.2 recombinant cells expressing hCXCR3
Format: cell-based
Experimental setup: L1.2 hCXCR3 cells, IP10 around 0.3 nM, 4 hours
Property: IC50 (µM)

Example compounds with recorded IC50:
>  <Compound>
CC(CNC(=O)c1ccc(CN(Cc2ccccn2)S(=O)(=O)c2ccc(C#N)cc2)cc1)c1ccccc1 (stereo not drawn)

>  <Readout units>
µM

>  <IC50>
0.16

$$$$
>  <Compound>
O=S(=O)(c1ccc(Cl)cc1)N(Cc1ccc(-c2nnn[nH]2)cc1)Cc1ccccc1Cl

>  <Readout units>
µM

>  <IC50>
0.548

$$$$
>  <Compound>
O=C(O)c1ccc(CN(Cc2ccccn2)S(=O)(=O)c2ccc(Cl)cc2)cc1F

>  <Readout units>
µM

>  <IC50>
1.13

$$$$
>  <Compound>
O=S(=O)(c1ccc(Cl)cc1)N(Cc1ccc(-c2nnn[nH]2)cc1)Cc1cccc(Cl)c1

>  <Readout units>
µM

>  <IC50>
1.29

$$$$
>  <Compound>
COc1ccc(CN(Cc2ccc(-c3nnn[nH]3)cc2)S(=O)(=O)c2ccc(Cl)cc2)cc1

>  <Readout units>
µM

>  <IC50>
0.885

$$$$

1 = O=C(NCC1CC1)c1ccc(CN(Cc2ccccn2)S(=O)(=O)c2ccc(Cl)cc2)cc1
2 = O=S(=O)(c1ccc(Cl)cc1)N(Cc1ccc(-c2nnn[nH]2)cc1)Cc1cc2ccccc2cn1
3 = O=C(O)c1ccc(CN(Cc2ccccc2F)S(=O)(=O)c2ccc(Cl)cc2)cc1F
4 = N#Cc1ccc(S(=O)(=O)N(Cc2ccc(NC(=O)Cc3cccc(Cl)c3)cc2)Cc2ccccn2)cc1
With regard to IC50, arrange the entries in ascending order, please. Returns: the labels listed in the requested order.
4, 1, 3, 2
(4: 0.06 µM, 1: 0.2 µM, 3: 0.513 µM, 2: 0.911 µM)
